These data points were gathered from the supplement of paper PMC11908140.

B1: library; numbered along this chain (parent)
chain: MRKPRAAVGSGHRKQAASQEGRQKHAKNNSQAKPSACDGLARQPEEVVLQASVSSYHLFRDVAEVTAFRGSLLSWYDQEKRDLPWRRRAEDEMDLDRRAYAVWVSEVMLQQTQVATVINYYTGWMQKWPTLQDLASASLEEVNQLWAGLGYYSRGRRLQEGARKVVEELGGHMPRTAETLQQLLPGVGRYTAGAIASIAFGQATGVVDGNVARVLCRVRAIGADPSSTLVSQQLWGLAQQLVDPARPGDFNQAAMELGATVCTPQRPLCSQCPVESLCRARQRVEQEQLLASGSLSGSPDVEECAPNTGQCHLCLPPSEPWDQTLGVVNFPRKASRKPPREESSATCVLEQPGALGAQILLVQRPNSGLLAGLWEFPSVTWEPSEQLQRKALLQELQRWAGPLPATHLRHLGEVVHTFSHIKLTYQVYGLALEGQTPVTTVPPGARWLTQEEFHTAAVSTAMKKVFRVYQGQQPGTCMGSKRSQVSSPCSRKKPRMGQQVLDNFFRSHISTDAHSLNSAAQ

Variants of: B1
measurement_description: 8OG:A repair function score (normalized; synonymous = 0, nonsense = -1) (normalized log-likelihood score); higher = more repair activity (WT-like);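 further: cells sorted at 72 h after reporter transfection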
protocol_conditions: with 8OG:A DNA repair reporter (GFP) in HEK-293 MUTYH KO cells
Class (by 8OG:A repair function score) -- class A = under -1, class B = from -1 up to -0.1, class C = -0.1 and over

Query: Please let me know in which category the item D133N belongs.
Result: class C

Query: Please let me know in which category the item L432W belongs.
Result: class C

Query: Please let me know in which category the item L237S belongs.
Result: class B

Query: Please let me know in which category the item V348C belongs.
Result: class B

Query: Please let me know in which category the item C347N belongs.
Result: class A

Query: Please let me know in which category the item G150P belongs.
Result: class A

Query: Please let me know in which category the item Q388G belongs.
Result: class B

Query: Please let me know in which category the item G188V belongs.
Result: class A
